measurement name: melting point

INSERT INTO assay_data (compound, reading) VALUES
  ('COc1cc(C2=NC(=Cc3cc4cccc(C)c4nc3OC)C(=O)O2)cc(OC)c1OC [Compound 8d]', '236 to 238 °C'),
  ('COc1cc(C2=NC(=Cc3cc4ccc(OC(C)C)cc4nc3OC)C(=O)O2)cc(OC)c1OC [Compound 8g]', '227 to 229 °C');

Next up:
Indicate the recorded melting point value for this compound: COc1cc(C2=NC(=Cc3cc4cc(C)ccc4nc3OC)C(=O)O2)cc(OC)c1OC [Compound 8b]
218 to 220 °C

----------
Consider the following molecules and their measured melting point readings.

INSERT INTO assay_data (molecule, reading) VALUES
  ('COc1ccc2nc(OC)c(/C=C3\N=C(c4cc(OC)c(OC)c(OC)c4)OC3=O)cc2c1 [Compound 8e]', '242 to 244 °C'),
  ('COc1cc(C2=NC(=Cc3cc4ccc(OCc5ccccc5)cc4nc3OC)C(=O)N2)cc(OC)c1OC [Compound 9h]', '259 to 261 °C'),
  ('COc1cc(C2=NC(=Cc3cc4cc(C)ccc4nc3OC)C(=O)N2)cc(OC)c1OC [Compound 9b]', '223 to 225 °C');

Indicate the recorded melting point value for this molecule: COc1cc(C2=NC(=Cc3cc4ccc(OC(C)C)cc4nc3OC)C(=O)N2)cc(OC)c1OC [Compound 9g]
238 to 240 °C
